Provide the recorded EC50 for the entries that follow.
system-tested: TLR8 (Homo sapiens, UniProt Q9NR97)
Sequence (Q9NR97 27-1041): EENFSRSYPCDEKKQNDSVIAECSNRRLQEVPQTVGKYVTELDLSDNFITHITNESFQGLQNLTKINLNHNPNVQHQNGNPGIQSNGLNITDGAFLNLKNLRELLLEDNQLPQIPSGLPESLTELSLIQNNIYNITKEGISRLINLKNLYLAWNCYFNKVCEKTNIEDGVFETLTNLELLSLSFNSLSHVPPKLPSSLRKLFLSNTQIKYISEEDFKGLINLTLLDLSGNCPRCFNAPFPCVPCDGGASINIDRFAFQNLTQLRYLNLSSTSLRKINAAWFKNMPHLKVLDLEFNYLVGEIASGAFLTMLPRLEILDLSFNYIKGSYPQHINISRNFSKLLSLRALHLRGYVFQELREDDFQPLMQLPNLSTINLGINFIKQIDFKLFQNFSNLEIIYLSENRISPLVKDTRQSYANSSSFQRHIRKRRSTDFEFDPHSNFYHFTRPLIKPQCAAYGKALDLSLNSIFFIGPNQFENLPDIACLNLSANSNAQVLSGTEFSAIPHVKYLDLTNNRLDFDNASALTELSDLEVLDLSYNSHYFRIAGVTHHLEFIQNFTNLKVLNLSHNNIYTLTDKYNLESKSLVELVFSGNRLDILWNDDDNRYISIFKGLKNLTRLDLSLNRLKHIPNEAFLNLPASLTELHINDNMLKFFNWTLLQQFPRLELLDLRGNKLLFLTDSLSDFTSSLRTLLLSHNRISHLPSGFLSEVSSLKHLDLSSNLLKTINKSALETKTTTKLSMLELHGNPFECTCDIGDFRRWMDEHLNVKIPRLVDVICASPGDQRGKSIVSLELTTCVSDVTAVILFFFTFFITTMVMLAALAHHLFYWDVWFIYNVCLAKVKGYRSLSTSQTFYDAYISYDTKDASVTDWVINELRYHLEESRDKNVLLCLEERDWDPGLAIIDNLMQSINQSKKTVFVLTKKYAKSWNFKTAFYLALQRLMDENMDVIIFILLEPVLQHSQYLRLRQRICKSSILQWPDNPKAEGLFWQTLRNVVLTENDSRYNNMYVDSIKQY
experiment-notes: HEK-BLUE-hTLR8 cell SEAP reporter assay (Quanti-Blue)
test-conditions: HEK-BLUE-hTLR8 cells, 0.5 nM to 15 µM, 24 hours

Exam item: Output reported EC50 of the compound CCCN(CCC)C(=O)C1=Cc2ccc(C3(C(=O)Nc4ccc5c(c4)CNCC5)CC3)cc2N=C(N)C1 on TLR8 (Homo sapiens, UniProt Q9NR97).
Marked response: < 250 nM

Exam item: Determine reported EC50 for CCCN(CCO)C(=O)C1=Cc2ccc(C3(C(=O)Nc4cnc5c(c4)CN(C(=O)CNC(=O)CCOCCOCCNC(=O)CCCNC(=O)CN4C(=O)C=CC4=O)CC5)CC3)cc2N=C(N)C1 ; test system: TLR8 (Homo sapiens, UniProt Q9NR97).
Marked response: 250 to 1000 nM

Exam item: Provide TLR8 (Homo sapiens, UniProt Q9NR97) EC50 reading for CCCN(CCOP(=O)(N[C@@H](C)C(=O)OCc1ccccc1)Oc1ccccc1)C(=O)C1=Cc2ccc(C3(C(=O)Nc4cnc5c(c4)CNCC5)CC3)cc2N=C(N)C1 (single isomer, unassigned) .
Marked response: < 250 nM

Exam item: With TLR8 (Homo sapiens, UniProt Q9NR97) as the test system, provide measured EC50 for this compound: CCCN(CCO)C(=O)C1=Cc2ccc(C3(C(=O)Nc4cnc5c(c4)CN(C(=O)CNC(=O)[C@H](Cc4ccccc4)NC(=O)CNC(=O)CNC(=O)CCCCCN4C(=O)C=CC4=O)CC5)CC3)cc2N=C(N)C1
Marked response: 250 to 1000 nM

Exam item: For TLR8 (Homo sapiens, UniProt Q9NR97), give EC50 of the listed compound: CCCN(CCO)C(=O)C1=Cc2ccc(C3(C(=O)Nc4cnc5c(c4)CN(C(=O)CNC(=O)CCOCCOCCNC(=O)CN4C(=O)C=CC4=O)CC5)CC3)cc2N=C(N)C1
Marked response: < 250 nM

Exam item: Report EC50 on TLR8 (Homo sapiens, UniProt Q9NR97) for this entry: CCCN(CCO)C(=O)C1=Cc2ccc(C3(C(=O)Nc4cccc(N)c4)CC3)cc2N=C(N)C1
Marked response: < 250 nM

Exam item: Determine reported EC50 for CCCN(CCO)C(=O)C1=Cc2ccc(C3(C(=O)Nc4cnc5c(c4)CN(C(=O)CCOCCOCCNC(=O)CCN4C(=O)C=CC4=O)CC5)CC3)cc2N=C(N)C1 ; test system: TLR8 (Homo sapiens, UniProt Q9NR97).
Marked response: 250 to 1000 nM

Exam item: GET EC50 where system = TLR8 (Homo sapiens, UniProt Q9NR97) and item = CCCN(CCO)C(=O)C1=Cc2ccc(C3(C(=O)NCc4cncc(N)c4)CC3)cc2N=C(N)C1
Marked response: 250 to 1000 nM

Exam item: Given CCCN(CCO)C(=O)C1=Cc2ccc(C3(C(=O)Nc4cnc5c(c4)CN(C(=O)OCc4ccc(NC(=O)[C@H](CC(N)=O)NC(=O)[C@H](C)NC(=O)[C@H](C)NC(=O)CCCCCN6C(=O)C=CC6=O)cc4)CC5)CC3)cc2N=C(N)C1 , report its EC50 on TLR8 (Homo sapiens, UniProt Q9NR97).
Marked response: 250 to 1000 nM

Exam item: State recorded EC50 with TLR8 (Homo sapiens, UniProt Q9NR97), entry CCCN(OCC)C(=O)C1=Cc2ccc(C3(C(=O)Nc4cnc5c(c4)CNCC5)CC3)cc2N=C(N)C1 , no comment.
Marked response: < 250 nM

Exam item: Please tell me the measured EC50 for CCCN(CCO)C(=O)C1=Cc2c(F)cc(C3(C(=O)Nc4cncc(CN)c4)CC3)cc2N=C(N)C1 ; system: TLR8 (Homo sapiens, UniProt Q9NR97).
Marked response: < 250 nM

Exam item: Specify EC50 for CCCN(CCO)C(=O)C1=Cc2ccc(C3(C(=O)Nc4cnc5c(c4)CN(C(=O)CCOCCOCCOCCOCCOCCOCCNC(=O)CCN4C(=O)C=CC4=O)CC5)CC3)cc2N=C(N)C1 , system TLR8 (Homo sapiens, UniProt Q9NR97).
Marked response: 250 to 1000 nM

Exam item: Quote EC50 with test system TLR8 (Homo sapiens, UniProt Q9NR97) for CCCN(CCO)C(=O)C1=Cc2ccc(C3(C(=O)Nc4cnc5c(c4)CNCC5)CC3)cc2N=C(N)C1
Marked response: 250 to 1000 nM
